- study.system: human orexin type 2 receptor (Homo sapiens, UniProt O43614)
- Construct: expressed in transfected cells
- measurement.notes: Measurement of orexin type 2 receptor agonist activity (calcium indicator fluorescence, CHO cells forcibly expressing human OX2 receptor)
- Assay type: cell-based
- test.settings: compound at 3 μM; 0% = DMSO, 100% = orexin A (human) 10 nM
Criterion: OX2R agonist activity (3 μM, %) strictly less than 90%. Met: True. Not met: False.

Observe how each entry below is paired with its result.
> print(dat)
                                smiles.repr  class.assignment
1  CS(=O)(=O)N[C@@H]1[C@H](Cc2cccc(-c3cccc(F)c3)c2F)N(C(=O)N2CCC2)CC1(F)F              True
2  CCS(=O)(=O)N[C@@H]1[C@H](Cc2cccc(-c3cc(F)ccc3F)c2F)N(C(=O)[C@H]2CCCO2)CC1(F)F              True

Shift focus to the following entry.
Task: For this molecule, is OX2R agonist activity (3 μM, %) lower than 90%? CN(C)C(=O)N1CC(F)(F)[C@H](NS(=O)(=O)N(C)C)[C@@H]1Cc1cccc(-c2cc(F)cc(F)c2)c1F
Result: False

----------
- study.system: human orexin type 2 receptor (Homo sapiens)
- Construct: expressed in transfected cells
- measurement.notes: Measurement of orexin type 2 receptor agonist activity (calcium indicator fluorescence, CHO cells forcibly expressing human OX2 receptor)
- Type: cell-based
- test.settings: compound at 3 μM; 0% = DMSO, 100% = orexin A (human) 10 nM
Criterion: OX2R agonist activity (3 μM, %) strictly less than 90%. Met: 1.0. Not met: 0.0.

> print(dat)
                                   compound  class.assignment
1  CN(C)C(=O)N1CC(F)(F)[C@H](NS(=O)(=O)C2CC2)[C@@H]1Cc1cccc(-c2cc(F)cc(F)c2)c1F [Example 524]               1.0
2  CCS(=O)(=O)N[C@@H]1[C@H](Cc2cccc(-c3cccc(F)c3F)c2F)N(C(=O)N2CCC2)CC1(F)F [Example 289]               1.0
3  Cc1cc(F)cc(-c2cccc(C[C@H]3[C@@H](NS(=O)(=O)C4CC4)C(F)(F)CN3C(=O)N3CCC3)c2F)c1 [Example 529]               0.0
4  CCS(=O)(=O)N[C@@H]1[C@H](Cc2cccc(-c3cc(F)cc(F)c3)c2F)N(C(=O)N2CCC2)CC1(F)F [Example 283]               0.0
5  CCS(=O)(=O)N[C@@H]1[C@H](Cc2cccc(-c3cccc(F)c3)c2F)N(C(=O)C2CC2)CC1(F)F [Example 202]               0.0

Task: For this compound, is OX2R agonist activity (3 μM, %) lower than 90%? CC(C)C(=O)N1CC(F)(F)[C@H](NS(=O)(=O)C2CC2)[C@@H]1Cc1cccc(-c2ccccc2)c1F [Example 171]
Result: 0.0

Task: For this compound, is OX2R agonist activity (3 μM, %) lower than 90%? CCS(=O)(=O)N[C@@H]1[C@H](Cc2cccc(-c3cc(F)ccc3F)c2F)N(C(=O)[C@H]2C[C@@H](F)C2)CC1(F)F [Example 381]
Result: 0.0

----------
Measured OX2R agonist activity (3 μM, %), listed per entry.
- study.system: human orexin type 2 receptor (Homo sapiens, UniProt O43614)
- Construct: expressed in transfected cells
- Sequence (O43614 1-444): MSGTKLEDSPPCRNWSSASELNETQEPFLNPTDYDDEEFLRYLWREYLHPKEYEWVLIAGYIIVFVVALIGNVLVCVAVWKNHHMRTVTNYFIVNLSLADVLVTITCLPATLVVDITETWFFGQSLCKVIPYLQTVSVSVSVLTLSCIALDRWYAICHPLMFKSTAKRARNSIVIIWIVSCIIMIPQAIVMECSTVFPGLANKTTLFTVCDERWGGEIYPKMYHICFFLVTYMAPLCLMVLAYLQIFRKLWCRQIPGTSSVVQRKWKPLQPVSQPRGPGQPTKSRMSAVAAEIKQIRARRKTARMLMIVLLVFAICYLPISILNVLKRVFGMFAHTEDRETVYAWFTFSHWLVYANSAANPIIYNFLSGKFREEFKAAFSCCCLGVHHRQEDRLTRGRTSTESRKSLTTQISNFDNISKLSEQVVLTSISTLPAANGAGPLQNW
- measurement.notes: Measurement of orexin type 2 receptor agonist activity (calcium indicator fluorescence, CHO cells forcibly expressing human OX2 receptor)
- Assay type: cell-based
- test.settings: compound at 3 μM; 0% = DMSO, 100% = orexin A (human) 10 nM
Provide only the numeric value, understood in %.

Completed entries (count: 6):
> print(dat)
                                   molecule                       observable  units.of.measure  reported.value
1  CCS(=O)(=O)N[C@@H]1[C@H](Cc2cccc(-c3ccccc3)c2F)N(C(=O)[C@H]2C[C@H](F)C2)CC1(F)F  OX2R agonist activity (3 μM, %)                 %             106
2  Cc1cccc(-c2cccc(C[C@H]3[C@@H](NS(=O)(=O)C4CC4)C(F)(F)CN3C(=O)N(C)C)c2F)c1F  OX2R agonist activity (3 μM, %)                 %              97
3  CCS(=O)(=O)N[C@@H]1[C@H](Cc2cccc(-c3cccc(F)c3)c2)N(C(=O)[C@H]2CCCO2)CC1(F)F  OX2R agonist activity (3 μM, %)                 %              98
4  CCS(=O)(=O)N[C@@H]1[C@H](Cc2cccc(-c3cccc(F)c3F)c2)N(C(=O)C2CCO2)CC1(F)F (stereo partly shown) [Example 175]  OX2R agonist activity (3 μM, %)                 %              95
5  CCS(=O)(=O)N[C@@H]1[C@H](Cc2cccc(-c3ccc(F)c(C)c3F)c2F)N(C(=O)C2CCO2)CC1(F)F (stereo partly shown) [Example 474]  OX2R agonist activity (3 μM, %)                 %              96
6  Cc1cccc(-c2cccc(C[C@H]3[C@@H](NS(=O)(=O)N(C)C)C(F)(F)CN3C(=O)N3CCC3)c2F)c1  OX2R agonist activity (3 μM, %)                 %              90

Continue with the molecule presented below.
Task: Give OX2R agonist activity (3 μM, %) for CCCC(=O)N1CC(F)(F)[C@H](NS(=O)(=O)CC)[C@@H]1Cc1cccc(-c2cccc(F)c2)c1F
Result: 96

----------
Measured microsomal CLint at 1 μmol/L, listed per entry.
- measurement.notes: Evaluation of microsome stability in human
- Format: in vitro ADME
- test.settings: pH 7.4; in vitro intrinsic metabolic clearance; human liver microsomes 0.2 mg/mL, 1 μmol/L test compound, NADPH-generating system
- Protocol: Human liver microsomes were purchased from Xenotech, LLC (Lenexa, Kans.). An incubation mixture consisted of microsomes in 50 mmol/L KH2PO4—K2HPO4 phosphate buffer (pH 7.4) and 1 μmol/L test compound. The concentration of microsomal protein was 0.2 mg/mL. […] The metabolic rate constant was calculated as the slope of the remaining rate-time plot. The in vitro intrinsic metabolic clearance was calculated by dividing initial metabolic rate constant by microsomal protein in the incubation mixture.
Provide only the numeric value, understood in µL/min/mg.

Completed entries (count: 5):
> print(dat)
                                smiles.repr  units.of.measure  reported.value
1  CCS(=O)(=O)N[C@@H]1[C@H](Cc2cccc(-c3cc(F)cc(F)c3)c2F)N(C(=O)C2CC2)CC1(F)F         µL/min/mg              13
2  CS(=O)(=O)N[C@@H]1[C@H](Cc2cccc(-c3cc(F)cc(F)c3)c2F)N(C(=O)C23CC(C2)C3)CC1(F)F         µL/min/mg               9
3  CCS(=O)(=O)N[C@@H]1[C@H](Cc2cccc(-c3cccc(F)c3)c2F)N(C(=O)[C@H]2CCO2)CC1(F)F         µL/min/mg              75
4  CCS(=O)(=O)N[C@@H]1[C@H](Cc2cccc(-c3cc(F)cc(F)c3)c2F)N(C(=O)[C@H]2CCO2)CC1(F)F         µL/min/mg             135
5  CS(=O)(=O)N[C@@H]1[C@H](Cc2cccc(-c3cc(F)cc(F)c3)c2F)N(C(=O)[C@H]2C[C@@H](F)C2)CC1(F)F         µL/min/mg              16

Task: Give microsomal CLint at 1 μmol/L for CCS(=O)(=O)N[C@@H]1[C@H](Cc2cccc(-c3cccc(F)c3)c2F)N(C(=O)C(C)C)CC1(F)F
Result: 44

Task: Give microsomal CLint at 1 μmol/L for CCS(=O)(=O)N[C@@H]1[C@H](Cc2cccc(-c3cc(F)cc(F)c3)c2F)N(C(=O)[C@H]2C[C@@H](F)C2)CC1(F)F
Result: 39

Task: Give microsomal CLint at 1 μmol/L for CCS(=O)(=O)N[C@@H]1[C@H](Cc2cccc(-c3cc(F)ccc3F)c2F)N(C(=O)C(C)(C)O)CC1(F)F
Result: 4

Task: Give microsomal CLint at 1 μmol/L for CS(=O)(=O)N[C@@H]1[C@H](Cc2cccc(-c3cc(F)cc(F)c3)c2F)N(C(=O)[C@H]2CCO2)CC1(F)F
Result: 65

Task: Give microsomal CLint at 1 μmol/L for CCS(=O)(=O)N[C@@H]1[C@H](Cc2cccc(-c3cccc(F)c3F)c2F)N(C(=O)C(C)(C)O)CC1(F)F
Result: 61

Task: Give microsomal CLint at 1 μmol/L for CCS(=O)(=O)N[C@@H]1[C@H](Cc2cccc(-c3ccccc3)c2F)N(C(=O)C(C)(C)O)CC1(F)F
Result: 12

Task: Give microsomal CLint at 1 μmol/L for CCS(=O)(=O)N[C@@H]1[C@H](Cc2cccc(-c3cc(F)cc(F)c3)c2F)N(C(=O)C(C)C)CC1(F)F
Result: 83

Task: Give microsomal CLint at 1 μmol/L for CC(C)(O)C(=O)N1CC(F)(F)[C@H](NS(C)(=O)=O)[C@@H]1Cc1cccc(-c2cc(F)cc(F)c2)c1F
Result: 40

Task: Give microsomal CLint at 1 μmol/L for CCS(=O)(=O)N[C@H]1[C@@H](F)CN(C(=O)[C@H]2CCO2)[C@H]1Cc1cccc(-c2ccccc2)c1F
Result: 3
